target: CASK, O14936; assay: holdup assay; set-up: key: below the threshold = too weak to quantify, mostly under pKd 3.1 to 4; settings: plain residues with an end cap or a label only (N-terminal biotin on a linker: ttds)
Sequence (O14936 487-570): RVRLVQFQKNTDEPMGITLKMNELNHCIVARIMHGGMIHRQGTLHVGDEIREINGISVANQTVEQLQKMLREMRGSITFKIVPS

BINDER: GRLLGLETNV [ARHGEF26, Q96DR7]
pKd: below the threshold

BINDER: PSRDRKETSI [RALBP1, Q15311]
pKd: below the threshold

BINDER: SHSSKGETAV [FZD7, O75084]
pKd: below the threshold
